Quick reference: pKd of the listed items.
Target: T1, Plasmodium falciparum histidine-rich protein II (HRP-II) (Plasmodium falciparum, UniProt P05227 22-332)
T1 construct: Coating antigen of all ELISAs; also called HRP-II protein; MA-HRPII Ag protein
T1 sequence (looked up): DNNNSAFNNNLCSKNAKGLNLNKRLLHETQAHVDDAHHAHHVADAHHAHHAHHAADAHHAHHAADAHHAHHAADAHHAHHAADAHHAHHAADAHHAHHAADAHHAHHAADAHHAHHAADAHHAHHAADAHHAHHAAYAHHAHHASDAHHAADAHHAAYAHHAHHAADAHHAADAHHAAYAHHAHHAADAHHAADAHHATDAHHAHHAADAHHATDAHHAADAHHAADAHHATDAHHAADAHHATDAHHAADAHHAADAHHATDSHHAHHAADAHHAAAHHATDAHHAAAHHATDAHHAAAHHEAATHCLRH
Test: indirect ELISA, four antigen coating concentrations;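 note: optical density read across an antibody dilution series at each antigen coating level, curves plotted on log scale, KD derived as reciprocal of the averaged constant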
The meaning of pKd here: minus log10 of the concentration in molar units.

Exercise: // pKd lookup, key: Mutation 1-14 (antibody, mouse IgG2b, kappa, V domains shown, Mutation 1 as framework) VH: EVQLQQSGPEVVKPGASVKISCKASGYTLTDYYMNWVKQSHGKGLEWIGDVNPINGGTAYNQKFRDKATLTVDKSSNTAYMELRSLTSEDSALYYCTKGAEDYWGQGTTLTVSS VL: DVVLTQTPLSLSVTIGQPASISCKSSQSLIYSNGKIYLNWFQQRPGQSPKRLMYQLSKLDPGIPDRFSGSGSETDFTLKISRVEAEDLGVYYCLQATYTPQTFGGGTKLEIKR
Key: 9.65

Exercise: Next entry: Mutation 1-40 (antibody, mouse IgG2b, kappa, V domains shown, Mutation 1 as framework) VH: EVQLQQSGPEVVKPGASVKISCKASGTTLTDYYMNWVKQSHGKGLEWIGDINPINGGTAYQQKFRDKATLTVDKSSNTAYMELRSLTSEDSALYYCTRGAEDYWGQGTTLTVSS VL: DVVLTQTPLSLSVTIGQPASISCKSSQSILYSNGKIYLNWFQQRPGQSPKRLMYQLSKLDPGIPDRFSGSGSETDFTLKISRVEAEDLGVYYCLQGTYTPQTFGGGTKLEIKR
Key: 10.08
